# TARGET SYSTEM: human Nav1.1 (Homo sapiens)
# Construct: host or cells: HEK293
# ASSAY NAME: Amplification of Nav1.1-derived voltage-gated sodium current (Nav1.1 current), automated patch clamp (Test 1)
# Format: cell-based
# EXPERIMENTAL CONDITIONS: Concentration for evaluation 1 μM; HEK293 cell line stably expressing human Nav1.1
TEST READOUT: Nav1.1 current amplification rate (%)
Quick note: unit goes after the number.

Below are worked cases with known answers.
COMPOUND: CN(c1cnc2cnn(CC(=O)Nc3ccc4cnnn4c3)c2n1)C1CC1
TEST READOUT: Nav1.1 current amplification rate (%)
MEASURED VALUE: 62%
--
COMPOUND: CC(=O)N1CC(c2cccc3c2CCN3C(=O)Cn2ncc3ncc(N(C)C4CCC4)nc32)C1
TEST READOUT: Nav1.1 current amplification rate (%)
MEASURED VALUE: 219%
--
COMPOUND: CN(c1cnc2cnn(CC(=O)Nc3ccc4nccnc4c3)c2n1)C1CCCC1
TEST READOUT: Nav1.1 current amplification rate (%)
MEASURED VALUE: 50%
--
COMPOUND: CC1(C)CC=C(c2ccc(=O)n(CC(=O)N3CCc4c(N5CCOCC5)cccc43)n2)CC1
TEST READOUT: Nav1.1 current amplification rate (%)
MEASURED VALUE: 280%
--
COMPOUND: Cc1ccc(-c2ncc3cnn(CC(=O)Nc4ccn5ncnc5c4)c3n2)cc1
TEST READOUT: Nav1.1 current amplification rate (%)
MEASURED VALUE: 50%
--
COMPOUND: CC1CCN(c2cnc3cnn(CC(=O)Nc4ccc5ncnn5c4)c3n2)CC1(F)F (centres unmarked)
TEST READOUT: Nav1.1 current amplification rate (%)
MEASURED VALUE: 33%
--
COMPOUND: CC1CC=C(c2ccc(=O)n(CC(=O)Nc3ccc4c(cnn4C)c3)n2)CC1 (centres unmarked)
TEST READOUT: Nav1.1 current amplification rate (%)
MEASURED VALUE: 68%

Shift focus to the following entry.
Input CN(c1cnc2cnn(CC(=O)N3CCc4c(CN5CC=CC5)cccc43)c2n1)C1CC1 , output reported Nav1.1 current amplification rate (%).
230%

* * *

# System: phosphorylated tau oligomer
# ASSAY NAME: Evaluation of phosphorylated tau oligomers in brain of APP-Tg mice, Western blotting (Test 4)
# Assay type: in vivo, mouse
# EXPERIMENTAL CONDITIONS: dose 0.2 mg/g-food, 7-10 days, with ABT 1 mg/g-food
TEST READOUT: Reducing effect of phosphorylated tau oligomer

Below are worked cases with known answers.
MOLECULE: CN(c1ncc2cnn(CC(=O)Nc3ccc4ncnn4c3)c2n1)C1CC(C)(C)C1 [Example 821]
MEASURED VALUE: + (0-25%: +)
//
MOLECULE: CN(c1ncc2cnn(CC(=O)Nc3ccn4ncnc4c3)c2n1)C1CCCC1 [Example 795]
MEASURED VALUE: + (0-25%: +)
//
MOLECULE: CN(c1cnc2cnn(CC(=O)Nc3ccn4ncnc4c3)c2n1)C1CC2(CC2)C1 [Example 630]
MEASURED VALUE: ++ (25-50%: ++)
//
MOLECULE: CN(CC1CCC1)c1ncc2cnn(CC(=O)Nc3ccc4ncnn4c3)c2n1 [Example 819]
MEASURED VALUE: ++ (25-50%: ++)

Shift focus to the following entry.
Input N#Cc1ccc(NC(=O)Cn2ncc3ncc(N4CCC5(CC5)C(F)(F)C4)nc32)cn1 [Example 746] , output reported Reducing effect of phosphorylated tau oligomer.
++ (25-50%: ++)
